Tested on: A549 or CoLo-357 cells
Assay type: cell-based, human
Conditions: preincubation with inhibitor, then liposomes 100 μM total lipids, 37°C
Measured endpoint: Effect of inhibitor on liposome accumulation/binding

- Smiles representation: "COC(=O)Nc1nc2ccc(C(=O)c3cccs3)cc2[nH]1"
  Result: "elusive effects"
- Smiles representation: "C=C1[C@@H](C)[C@H]2[C@H](Cc3ccccc3)NC(=O)[C@]23OC(=O)/C=C/[C@H](O)CCC[C@@H](C)C/C=C/[C@H]3[C@@H]1O"
  Result: "elusive effects"
- Smiles representation: "COc1cc2c(c(OC)c1OC)-c1ccc(OC)c(=O)cc1[C@@H](NC(C)=O)CC2"
  Result: "elusive effects"
